src = patent US20100184189A1

biological target: AsnO D241N (Streptomyces coelicolor, UniProt Q9Z4Z5, D241N/M1S); test: Substrate specificity of the mutated protein AsnO D241N, HPLC/MS; assay type: biochemical; design: made in house; host or cells: E. coli BL21 (DE3), pQTEV vector; settings: amino acid 1.5 mM, 16 h at 16° C., (NH4)2Fe(SO4)2 1 mM, α-ketoglutarate 4 mM, catalase, HEPES pH 7.5
Sequence (Q9Z4Z5 other isoform, or with tags, fused parts or gaps D241N): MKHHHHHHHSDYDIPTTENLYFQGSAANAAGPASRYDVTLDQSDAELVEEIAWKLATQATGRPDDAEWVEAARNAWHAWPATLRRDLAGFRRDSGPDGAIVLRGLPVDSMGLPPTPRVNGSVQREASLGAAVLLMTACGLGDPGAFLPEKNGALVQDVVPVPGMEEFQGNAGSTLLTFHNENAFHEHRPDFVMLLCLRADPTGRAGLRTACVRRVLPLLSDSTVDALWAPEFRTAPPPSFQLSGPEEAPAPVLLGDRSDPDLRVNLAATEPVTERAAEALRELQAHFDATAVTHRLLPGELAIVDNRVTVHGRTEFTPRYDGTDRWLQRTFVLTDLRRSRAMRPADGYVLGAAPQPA
RECORDED METRIC: hydroxylation

[[record]]
structure_string = "N[C@@H](Cc1c[nH]c2ccccc12)C(=O)O"
recorded_metric = "hydroxylation"
reported = "no"

[[record]]
structure_string = "CC[C@H](C)[C@H](N)C(=O)O"
recorded_metric = "hydroxylation"
reported = "no"

[[record]]
structure_string = "CC(C)[C@H](N)C(=O)O"
recorded_metric = "hydroxylation"
reported = "no"

